Molecular target: T1, HaloTag-ATRX ADD domain (163-292)
T1 chain: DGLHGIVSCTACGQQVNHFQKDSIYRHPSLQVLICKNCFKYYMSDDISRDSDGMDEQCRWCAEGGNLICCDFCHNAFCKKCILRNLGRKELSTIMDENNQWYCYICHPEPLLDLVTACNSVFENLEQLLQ
Test: peptide microarray binding signal (635 nm), min-max normalized on array (fraction of array maximum); higher = stronger binding
Conditions: peptide region: Unmod H3 variant; binder concentration: 50 nM
Endpoint name: peptide microarray binding signal
Provide a numeric answer; units are not to be included.

// worked examples, peptide microarray binding signal included
>  <Binder>
RKSAPSTGGVKKP [Unmod H3 variant R K S A P S T G G V K K P]

>  <peptide microarray binding signal>
0.00282

$$$$
>  <Binder>
VGLFEDTNLCAIH [Unmod H3 variant V G L F E D T N L C A I H]

>  <peptide microarray binding signal>
0.00179

$$$$
>  <Binder>
ALQEASEAYLVGL [Unmod H3 variant A L Q E A S E A Y L V G L]

>  <peptide microarray binding signal>
0.00182

$$$$
>  <Binder>
ATGGVKKPHRYRP [Unmod H3 variant A T G G V K K P H R Y R P]

>  <peptide microarray binding signal>
0.00552

$$$$
>  <Binder>
TGGKAPRKQLATK [Unmod H3 variant T G G K A P R K Q L A T K]

>  <peptide microarray binding signal>
0.00389

$$$$

Proceeding to the next binder to report its peptide microarray binding signal.
Measured peptide microarray binding signal of RKSAPATGGVKKP [Unmod H3 variant R K S A P A T G G V K K P] : 0.00398
